All values here come from PubChem BioAssay (NCI).

system: BT-549 breast; test: NCI-60 one-dose screen, 48 h; conditions: 10 µM unless noted
About 83,000 compounds went through this panel and 20% of them were active in at least one assay; those are over-represented in the sample as a whole. Calls of active or inactive are those of the source. The calls were made as follows: active = growth percent below 10; inactive = the rest.
# valid calls are 1.0 (active), 0.0 (inactive); nothing else

compound: N#Cc1nc(-c2ccccc2)oc1S(=O)(=O)N1CCOCC1
assigned.class: 0.0

**Q:** Short answer needed: outcome of this test for O=C(/C=C/c1cccs1)c1ccc(Cl)nc1 ?
**A:** 0.0

---

growth values for the compounds below.
test system: SK-MEL-2 melanoma; assay: NCI-60 one-dose screen, 48 h (100 = growth as untreated, 0 = no growth, -100 = all killed); details: 10 µM unless noted
Compounds without any hit were thinned out: in the full panel of roughly 83,000, 20% have a hit.
Answer with a number only, understood to be in %.

# annotated cases, reported growth shown
compound: COc1cc(-c2nc3cc(Cl)c(Cl)cc3[nH]2)ccc1OCC(=O)N=Nc1c(O)[nH]c2ccc([N+](=O)[O-])cc12
growth [%]: 102
//
compound: C#Cc1ccc(NC(=O)c2ccc(/C=C/C(=O)c3nccn3C)cc2)cc1
growth [%]: -30.4
//
compound: CN[C@]12CC3(C=CC(=O)C=C3)O[C@@]1(Cc1ccc(OC)cc1)N(C)C(=O)N2
growth [%]: 70.7
//
compound: Cn1c(=O)c2[nH]c(N/N=C/c3ccccc3Br)nc2n(C)c1=O
growth [%]: 120
//
compound: Cc1nc2sc(C(=O)Nc3cccc(Cl)c3C)c(N)c2cc1C(=O)c1ccccc1
growth [%]: 49.7

**Q:** Fill in the blank: the reported growth of Cc1cc(Cl)ccc1NC(=O)c1cc2ccccc2cc1O is ____.
**A:** -2.55

**Q:** // same read-out, input: CN1C(=O)N(C)C2Nn3c(s/c(=C\c4ccc(C(F)(F)F)cc4)c3=O)=NC21 (stereo not given)
**A:** 115

---

system: SF-539 CNS; assay: NCI-60 one-dose screen, 48 h; conditions: 10 µM unless noted
About 83,000 compounds went through this panel and 20% of them were active in at least one assay; those are over-represented in the sample as a whole. Calls of active or inactive are those of the source. The calls were made as follows: active = growth percent below 10; inactive = the rest.
# valid calls are YES (active), NO (inactive); nothing else

Example cases with answers are listed next.
compound: O=C(/C=C/c1cn(-c2ccccc2)nc1-c1ccc([N+](=O)[O-])cc1)c1ccc(Cl)cc1
measured.target: SF-539 CNS
assigned.class: NO

compound: CCOC(=O)c1c2c(n3ccc(C)cc13)C(=O)c1ccccc1C2=O
measured.target: SF-539 CNS
assigned.class: NO

compound: O=C(Nc1ncc(Cc2ccc(Cl)c(C(F)(F)F)c2)s1)c1ccc2nnsc2c1
measured.target: SF-539 CNS
assigned.class: YES

compound: CO/N=C(/C)c1ccc(NC(=O)CSc2nnc(-c3ccncc3)n2-c2ccccc2)cc1
measured.target: SF-539 CNS
assigned.class: YES

compound: C=C(CNCCc1ccc(O)cc1)[C@@H]1CC[C@]2(CO)CC[C@]3(C)[C@H](CC[C@@H]4[C@@]5(C)CCC(NCCO)C(C)(C)[C@@H]5CC[C@]43C)[C@@H]12 (some centres not stated)
measured.target: SF-539 CNS
assigned.class: YES

compound: CN(CCn1sc(=O)n(Cc2ccccc2)c1=O)Cc1ccc2c(Cl)cc(Cl)c(O)c2n1
measured.target: SF-539 CNS
assigned.class: NO

compound: Oc1ccc(CN2CCC(N3CCCCC3)CC2)c2cccnc12
measured.target: SF-539 CNS
assigned.class: NO

compound: CCCC(O)Cn1ncc(C(=O)OCC)c1NC(=O)NCc1ccccc1F (configuration not stated)
measured.target: SF-539 CNS
assigned.class: NO

compound: C=CCn1c(SCC(=O)Nc2ccc(C(=O)/C=C/c3cc4cc(OC)ccc4nc3Cl)cc2)nnc1-c1ccc(Br)cc1
measured.target: SF-539 CNS
assigned.class: NO

compound: CCN(c1ccc(Cl)cc1)c1nc(-c2ccc([N+](=O)[O-])cc2)cs1
measured.target: SF-539 CNS
assigned.class: NO

**Q:** Short answer needed: outcome of this test for O=C(Cn1c2c(c3ccccc31)CCCC2)Nc1ccc(-c2nc3ccccc3s2)cc1 ?
**A:** NO

**Q:** // same read-out, input: COc1ccc(C2=Nc3c/c(=C\c4c(O)[nH]c5ccc(Cl)cc45)ccc3=N2)cc1
**A:** NO

**Q:** // same read-out, input: Cc1ccc(-c2nc3nc(-c4ccc(F)cc4)nc(N4CCNCC4)c3o2)cc1
**A:** YES

**Q:** // same read-out, input: CCOC(=O)c1nc(Nc2ccc(NC(=O)Nc3ccc(F)cc3)cc2)c2ccccc2n1
**A:** NO

**Q:** // same read-out, input: O=C(O)[C@@H]1c2ccccc2-c2ccccc2[C@H]1C(=O)O
**A:** NO

**Q:** // same read-out, input: C=C(C)[C@@H]1CC[C@]2(C(=O)NCCNCCN)CC[C@]3(C)[C@H](CC[C@@H]4[C@@]5(C)C/C(=C/c6ccncc6)C(=O)C(C)(C)[C@@H]5CC[C@]43C)[C@@H]12
**A:** NO

**Q:** // same read-out, input: Cn1c(=O)c2[nH]c(N/N=C/c3ccccc3Br)nc2n(C)c1=O
**A:** NO

**Q:** // same read-out, input: CCN(CC)CCNC(=O)c1cn2ncnc(Oc3ccc(NC(=O)Nc4ccc(Cl)c(C(F)(F)F)c4)c(F)c3)c2c1C
**A:** YES

**Q:** // same read-out, input: Cc1ccc(C2=Nc3c(N)ncnc3NC(c3ccc4c(c3)OCO4)C2)cc1 (configuration not stated)
**A:** NO

**Q:** // same read-out, input: CS(=O)(=O)Nc1cc(-c2ccc3ncnc(Nc4c(Cl)ccc5c4OCO5)c3c2)cnc1Cl
**A:** YES

**Q:** // same read-out, input: CCOC(=O)c1c(NC(=O)c2ccc(C(C)C)cc2)sc2c(CN(C)C)c(O)ccc12
**A:** NO

**Q:** // same read-out, input: COc1cc(-c2csc(NC(=O)c3cc(-n4cnc(C)c4)cc(C(F)(F)F)c3)n2)cc(OC)c1OC
**A:** NO

**Q:** // same read-out, input: O=C(CSc1nc2ccc([N+](=O)[O-])cc2[nH]1)Nc1cccc(C(F)(F)F)c1
**A:** NO

**Q:** // same read-out, input: Cn1cc(-c2nc(-c3c[nH]c4ccncc34)cs2)c2ccccc21
**A:** NO

**Q:** // same read-out, input: CNc1nc(S(=O)c2ccc(C#N)cc2)nc2ccccc12 (configuration not stated)
**A:** NO

---

growth values for the molecules below.
test system: HOP-92 NSCLC; test: NCI-60 one-dose screen, 48 h (100 = growth as untreated, 0 = no growth, -100 = all killed); settings: 10 µM unless noted
This is part of a sample that, as a whole, favours compounds with a hit. Of some 83,000 tested, about 20% had one in any assay. The source made the active and inactive calls. Rule for the calls: active = growth percent below 10; inactive = the rest.

# annotated cases, reported growth shown
molecule: CCOC(=O)C1=NN(c2ccccc2)C(=O)/C1=C\N1C(=O)CC(=O)NC1=S
growth: 102% (inactive)

molecule: C=C1C(=O)O[C@H]2[C@H]1CC/C(COC(=O)CCSCCC(=O)OC/C1=C/CC[C@@]3(C)O[C@H]3[C@H]3OC(=O)C(=C)[C@@H]3CC1)=C\CC[C@@]1(C)O[C@@H]21
growth: -50.2% (active)

molecule: CCN(C(=O)N1CCN(c2cc3c(cc2F)c(=O)c(C(=O)O)cn3C2CC2)CC1)c1nc(-c2ccc(Cl)cc2)cs1
growth: -19.2% (active)

**Q:** Fill in the recorded growth for this molecule, with HOP-92 NSCLC as test system: CN1CCN(Cc2ccc3c(NNC(=O)c4ccccc4)nc4cc(F)ccc4n23)CC1
**A:** 50.7% (inactive)

**Q:** // same read-out, input: CCOC(=O)c1c(C)c2c(n1C)CSc1cc(C(=O)c3ccccc3)c(=O)[nH]c1-2
**A:** 84.4% [100 µM] (inactive)

**Q:** // same read-out, input: COC(=O)[C@]1(C)CCC[C@]2(C)[C@H]3C[C@H]4C(C(C)C)=C[C@]3(CC[C@H]21)[C@H]1[C@@H]4[C@@H](OCCC#N)CC[C@@H]1OCCC#N
**A:** 26.2% (inactive)

**Q:** // same read-out, input: Fc1ccc(Nc2nc3nonc3nc2Nc2ccc(I)cc2)cc1
**A:** -25.9% (active)

**Q:** // same read-out, input: CN(C)CCCC1(c2ccc(F)cc2)OCc2cc(-c3cccc4[nH]ccc34)ccc21 (configuration not stated)
**A:** 30.6% (inactive)

**Q:** // same read-out, input: CC1(c2ccccc2O)NN=C(/N=C/c2cccc([N+](=O)[O-])c2)N1C(Cc1c[nH]c2ccccc12)C(=O)O (configuration not stated)
**A:** 81.2% (inactive)
